Reported cell viability values follow for various molecules
- Tested on: NOMO1
- protocol-details: cell viability relative to DMSO control; higher = less cytotoxic
- assay-setup: HPLM + 10% dialyzed FBS; 48 h; 5.12 µM
Note: unit % is implicit; provide only the numeric part.

Solved entries (count: 3):
| molecule | endpoint-name | unit-spec | value-measured |
| --- | --- | --- | --- |
| CCN(CCO)CCCC(C)Nc1ccnc2cc(Cl)ccc12 (centres undefined) | cell viability | % | 90 |
| c1cc(N[C@@H]2CCNC2)nc(-c2cnc3ccc(-c4cn[nH]c4)cn23)c1 | cell viability | % | 132 |
| CCC[S+](=O)([O-])Nc1ccc(F)c(C(=O)c2c[nH]c3ncc(-c4ccc(Cl)cc4)cc23)c1F | cell viability | % | 108 |

Look up cell viability for this molecule: Cc1nc(N)sc1-c1ccnc(Nc2ccc(N3CCOCC3)cc2)n1 87
